# credit: PubChem BioAssay AID1159580

# reported normalized growth; entries follow
run-description: chemical genetic growth profiling, strain panel (AID 1159580);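 also: tested at 20 µM; growth read once vehicle control cultures reached saturation at 30 °C; 1 = growth at the plate median or of vehicle wells; lower values mean less growth of the strain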
experimental-setup: S. cerevisiae deletion strains, growth OD, locus YDL028C, strain MPS1, stronger effect = lower value
About 2,000 (36%) of roughly 5,500 compounds were called active. About 18% were inconclusive and are not listed. The list shows a part of the results.
measure: normalized growth

                           substance_smiles            result
0         O/N=C(/c1ccc(Cl)cc1)c1cc2ccccc2o1  0.948 (inactive)
1         COc1ccc(/C=C2/C(=O)Nc3ccccc32)cc1  0.896 (inactive)
2  CC(C)(C)C(=O)NC(=S)N/N=C\c1cc(Cl)cc(Cl)c1O  0.927 (inactive)
3           CCOC(=O)N/N=C\c1cc(Cl)cc(Cl)c1O  0.942 (inactive)

---

run-description: chemical genetic growth profiling, strain panel (AID 1159580);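 also: tested at 20 µM; growth read once vehicle control cultures reached saturation at 30 °C; 1 = growth at the plate median or of vehicle wells; lower values mean less growth of the strain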
experimental-setup: S. cerevisiae deletion strains, growth OD, locus YIL125W, strain kgd1, stronger effect = lower value
The campaign covered roughly 5,500 compounds. About 2,000 (36%) were called active. About 18% were inconclusive and are not listed. The list shows a part of the results.
measure: normalized growth

molecule	recorded-number
O=C(OC1Cc2c(O)cc(O)cc2OC1c1cc(=O)c(O)c2c(O)c(O)cc(C3Oc4cc(O)cc(O)c4CC3O)c2c1)c1cc(O)c(O)c(O)c1 (stereo not given)	0.995
CC12CCC3c4ccc(OC(=O)c5ccccc5)cc4CCC3C1CCC2O (stereo not given)	0.994
CC1CC[C@@]2(OC1)O[C@H]1CC3C4CC[C@@H]5CC(=O)CC[C@]5(C)C4CC[C@]3(C)[C@H]1[C@@H]2C (stereo not given in full)	1
O=c1c(O)c(-c2cc(O)c(O)c(O)c2)oc2cc(O)cc(O)c12	1.02
CCC(c1ccc(O)cc1)C(CC)c1ccc(O)cc1 (stereo not given)	0.994
O=C(O[C@@H]1Cc2c(O)cc(O)cc2O[C@@H]1c1cc(O)c(=O)c2c(O)c(O)cc([C@H]3Oc4cc(O)cc(O)c4C[C@H]3OC(=O)c3cc(O)c(O)c(O)c3)c2c1)c1cc(O)c(O)c(O)c1	1.04
COc1cc(O)c2c(=O)c(O)c(-c3ccc(O)c(O)c3)oc2c1	0.981
C[N+](C)(C)CC(O)CC(=O)O (stereo not given)	1
CCCCCCCCCCCCCCCCCC(=O)OC(CC(=O)O)C[N+](C)(C)C (stereo not given)	0.59
COc1cc(OC)c2c(=O)c(OC)c(-c3ccc(OC)c(OC)c3)oc2c1	1.02

---

run-description: chemical genetic growth profiling, strain panel (AID 1159580);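 also: tested at 20 µM; growth read once vehicle control cultures reached saturation at 30 °C; 1 = growth at the plate median or of vehicle wells; lower values mean less growth of the strain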
experimental-setup: S. cerevisiae deletion strains, growth OD, locus YER123W, strain YCK3, stronger effect = lower value
The whole screen tested about 5,500 compounds, of which about 2,000 (36%) were called active. About 18% were inconclusive and are not listed. This is one part of the list.
measure: normalized growth

>>> df
                           substance_smiles            measure  recorded_number
0        COCCCNC(=S)N/N=C\c1cc(Cl)cc(Cl)c1O  normalized growth            0.944
1             Cc1cc(Cl)ccc1NNC(=O)c1sccc1Cl  normalized growth            0.787
2            COCCCNC(=S)N/N=C\c1cc(Br)ccc1O  normalized growth            0.989
3  Oc1c(Cl)cc(Cl)cc1C=Nc1ccc(Sc2ccccc2)nc1Sc1ccccc1  normalized growth              0.7
4             Cc1cc(Cl)ccc1NNC(=O)c1sccc1Br  normalized growth             0.81
5  CC(C)(C)C(=O)NC(=S)N/N=C\c1cc(Cl)cc(Cl)c1O  normalized growth            0.167
6             CC(C)(C)NC(=S)N/N=C\c1ccccc1O  normalized growth            0.848
7           CCOC(=O)N/N=C\c1cc(Cl)cc(Cl)c1O  normalized growth            0.765
